# Tested on: SF-295 CNS
# assay-details: NCI-60 one-dose screen, 48 h
# condition: 10 µM unless noted
This is part of a sample that, as a whole, favours compounds with a hit. Of some 83,000 tested, about 20% had one in any assay. Calls of active or inactive are those of the source. Rule for the calls: active = growth percent below 10; inactive = the rest.
Outcome field: choose from active, inactive

Recorded results for 3 compounds are shown here.
compound: O=C(NCCCl)NCCN1c2nc3ccccc3cc2Sc2cc3ccccc3nc21
assigned-class: inactive

compound: CCN(CC)c1ccc(C(=C2C=CC(=[N+](CC)Cc3cccc(S(=O)(=O)O)c3)C=C2)c2ccc(N(CC)Cc3cccc(S(=O)(=O)O)c3)cc2)cc1
assigned-class: inactive

compound: CCOC(=O)OCC(=O)[C@@]1(O)CC[C@H]2[C@@H]3CCC4=CC(=O)CC[C@]4(C)[C@H]3[C@@H](O)C[C@@]21C
assigned-class: inactive

Kindly provide the recorded test outcome for the following compound: "COP(=O)(OC)C(c1ccccc1)(c1ccccc1)c1ccccc1"
inactive

I'd appreciate the recorded outcome for NC(=O)NS(=O)(=O)c1ccc(N2N=C(C(F)(F)F)CC2c2cc(C(F)(F)F)cc(C(F)(F)F)c2)cc1 (configuration not stated) from this test.
inactive

Call for entry BrC1CC(Br)c2c1c1c(c3c2C(Br)CC3Br)C(Br)CC1Br (configuration not stated) :
inactive
